- TESTED ON: Prostaglandin G/H synthase 2 (Homo sapiens) (UniProt P35354)
- Sequence (whole entry): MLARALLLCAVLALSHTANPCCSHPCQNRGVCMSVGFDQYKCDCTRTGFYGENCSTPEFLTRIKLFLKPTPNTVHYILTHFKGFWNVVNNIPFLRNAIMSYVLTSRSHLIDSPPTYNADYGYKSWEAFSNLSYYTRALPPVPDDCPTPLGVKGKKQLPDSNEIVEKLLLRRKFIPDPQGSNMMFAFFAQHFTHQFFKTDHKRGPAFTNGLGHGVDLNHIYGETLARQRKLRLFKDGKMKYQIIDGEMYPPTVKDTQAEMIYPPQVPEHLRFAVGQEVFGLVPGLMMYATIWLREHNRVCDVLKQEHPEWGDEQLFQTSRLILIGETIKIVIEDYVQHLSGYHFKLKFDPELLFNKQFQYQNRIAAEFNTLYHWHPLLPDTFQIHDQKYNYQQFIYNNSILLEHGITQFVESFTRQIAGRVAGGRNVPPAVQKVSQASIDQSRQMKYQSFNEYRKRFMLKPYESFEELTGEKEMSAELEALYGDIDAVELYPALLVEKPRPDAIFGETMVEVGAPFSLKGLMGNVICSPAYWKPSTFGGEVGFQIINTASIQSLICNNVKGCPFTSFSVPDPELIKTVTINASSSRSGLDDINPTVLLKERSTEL
- TEST DESCRIPTION: Inhibition of COX2-induced PGE2 production in human A549 cells assessed as PGE2 level at 30 uM by ELISA (reference value: 57 +/- 4 pg/ml)
- Assay type: cell-based
Tick class 1 if Activity is 50 pg/mL or greater. Tick class 0 if Activity is less than 50 pg/mL.

Example entries begin here.
In [3]: df
Out[3]:
                                   molecule  classification
0  CC(=O)Oc1ccccc1C(=O)NC1CC(C)(C)N([O])C(C)(C)C1         class 1
1  CC1(C)CC(C(=O)Oc2ccccc2C(=O)OCc2ccccc2)CC(C)(C)N1[O]         class 0
2  CC1(C)CC(C(=O)Oc2ccccc2C(=O)O)C(C)(C)N1[O] (stereo not drawn)         class 0
3  CC(=O)Oc1cc2c(cc1C(=O)O)C(C)(C)N([O])C2(C)C         class 1
4  CC(=O)Oc1ccccc1C(=O)OC1CC(C)(C)N([O])C(C)(C)C1         class 0

Prompt: Confirm if Activity reported for the molecule CC(=O)Oc1ccccc1C(=O)Nc1ccc2c(c1)C(C)(C)N([O])C2(C)C is 50 pg/mL or above.
Completion: class 0

Prompt: Decide: is the reported value of Activity for COc1ccc2c(c1)c(CC(=O)Nc1ccc3c(c1)C(C)(C)N([O])C3(C)C)c(C)n2C(=O)c1ccc(Cl)cc1 equal to or greater than 50 pg/mL?
Completion: class 1
